Below, each entry is listed alongside its reported T ½.
Target: T1, Human BCMA (human, UniProt Q02223 1-54, limits assumed)
T1 construct: Soluble analyte in SPR; construct not described; also called huBCMA; B-cell maturation antigen
T1 sequence (looked up): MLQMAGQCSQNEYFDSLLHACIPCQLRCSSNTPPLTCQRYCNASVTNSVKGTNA
Assay: SPR, IgG immobilised, 37 C

# Binder, T ½
measured = [
    ("L3.PY/L3.KY/P6E01 (antibody, V domains shown, IgG) VH: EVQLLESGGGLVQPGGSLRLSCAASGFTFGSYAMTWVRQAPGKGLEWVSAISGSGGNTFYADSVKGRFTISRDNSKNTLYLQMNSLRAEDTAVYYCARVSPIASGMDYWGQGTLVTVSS VL: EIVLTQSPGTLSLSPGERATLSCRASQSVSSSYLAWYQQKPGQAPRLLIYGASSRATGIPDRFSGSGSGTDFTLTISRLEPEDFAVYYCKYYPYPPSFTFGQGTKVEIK", "10.7 min"),
    ("L3.PY/H3.TAQ (antibody, V domains shown, IgG) VH: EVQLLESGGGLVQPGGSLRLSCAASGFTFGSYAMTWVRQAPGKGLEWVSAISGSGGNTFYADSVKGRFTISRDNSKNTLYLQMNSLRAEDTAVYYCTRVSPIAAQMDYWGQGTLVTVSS VL: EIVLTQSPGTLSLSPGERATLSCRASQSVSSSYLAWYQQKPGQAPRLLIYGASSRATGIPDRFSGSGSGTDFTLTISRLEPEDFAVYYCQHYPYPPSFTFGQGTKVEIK", "10.1 min"),
    ("L3.PY/H2.LT (antibody, V domains shown, IgG) VH: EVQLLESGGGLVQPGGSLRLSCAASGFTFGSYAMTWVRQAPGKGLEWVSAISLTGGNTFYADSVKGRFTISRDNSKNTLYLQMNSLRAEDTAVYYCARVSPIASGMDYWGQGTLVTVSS VL: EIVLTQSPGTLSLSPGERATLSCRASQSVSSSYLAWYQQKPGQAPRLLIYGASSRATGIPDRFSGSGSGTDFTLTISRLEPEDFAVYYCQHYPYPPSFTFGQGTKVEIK", "8.95 min"),
]
